Cited source: the FLAb antibody collection (doi:10.7554/elife.23156)

B1: scFv; the commonest letter at each place (parent)
chain 1: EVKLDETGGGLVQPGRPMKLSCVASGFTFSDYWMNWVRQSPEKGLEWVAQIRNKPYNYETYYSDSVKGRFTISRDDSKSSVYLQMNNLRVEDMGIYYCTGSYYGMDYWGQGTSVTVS
chain 2: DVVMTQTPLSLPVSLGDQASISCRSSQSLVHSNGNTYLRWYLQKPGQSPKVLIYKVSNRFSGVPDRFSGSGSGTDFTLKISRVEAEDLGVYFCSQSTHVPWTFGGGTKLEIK

- Variants of: B1
- experiment summary: Kd (Tite-Seq)
- assay context: with fluorescein; format: scFv 4-4-20, heavy + light
quantity name: Kd

Kindly note the recorded Kd for chain 1 F29L M34C , which is ≥ 10 µM

Query chain 1 F29T S30C yields Kd of 0.0391 µM

The variant chain 1 Y103L D106P showed Kd equal to ≥ 10 µM

Memo: chain 1 G100N G104Y , reported Kd: ≥ 10 µM

Kd reading for chain 1 F29D D31E : ≥ 10 µM

Recorded Kd (variant chain 1 Y103D M105Y ): ≥ 10 µM

Looking up chain 1 W36L V37Q , I see its Kd listed as ≥ 10 µM

Entry chain 1 W36L ; Kd = ≥ 10 µM

// sample chain 1 N35A W36P , its Kd was ≥ 10 µM

Record chain 1 S101D W108N . Reported Kd: ≥ 10 µM

# variant chain 1 W33M V37P ; its Kd = ≥ 10 µM

Input chain 1 Y102G G104H . Output Kd: ≥ 10 µM

Notebook: chain 1 T28N M34E V37L , Kd read as ≥ 10 µM

Field Kd (entry chain 1 N35T ) reads ≥ 10 µM

response.value for chain 1 Y32C M34Y (field: Kd) = ≥ 10 µM

chain 1 Y102Q Y103E yielded Kd of ≥ 10 µM

Noted for chain 1 Y107H : its Kd reads 0.00251 µM

Kindly note the recorded Kd for chain 1 S30V D31P , which is ≥ 10 µM

Form field Kd, entry chain 1 F29A Y32N : ≥ 10 µM

Memo: chain 1 S30Y Y32S W33T , reported Kd: ≥ 10 µM

Record chain 1 S101V M105H , field Kd: ≥ 10 µM

Measured Kd of chain 1 G100P D106A : ≥ 10 µM

chain 1 G100E has a reported Kd of ≥ 10 µM

// recorded Kd for chain 1 G100I Y107P : ≥ 10 µM

Note to self: Kd recorded for chain 1 F29N S30K was 0.228 µM

What the record says about chain 1 Y102C G109A : Kd is 2.47 µM

// chain 1 W33R M34D : Kd value = ≥ 10 µM

The value of Kd measured for the variant chain 1 Y103N G104F turned out to be ≥ 10 µM

The recorded Kd for chain 1 Y102N Y103C is 4.14 µM

Per the record, chain 1 S101Y has Kd of ≥ 10 µM

Please fill in: Kd reported for chain 1 G100E S101V = ≥ 10 µM

Lab book: Kd of chain 1 Y103E M105I noted as ≥ 10 µM

// field: Kd; key: chain 1 Y32W N35T ; value = ≥ 10 µM

// recorded Kd for chain 1 T28W D31R : 0.0171 µM

Kd for chain 1 S30C W36Y is 0.0434 µM

// field: Kd; key: chain 1 T28H S30D ; value = 0.00184 µM

In plain terms, chain 1 S30Y W36A has a documented Kd of ≥ 10 µM

// sample chain 1 G109V , its Kd was ≥ 10 µM

Memo: chain 1 D31E W33C , reported Kd: ≥ 10 µM

get_value(item= chain 1 G104R Y107R , readout=Kd) returns ≥ 10 µM

Form field Kd, entry chain 1 S30A W33N : ≥ 10 µM

Briefly, Kd measured for chain 1 F29G S30E : ≥ 10 µM

For record chain 1 F29C W33G the listed Kd is ≥ 10 µM

Kd in this record for chain 1 D31H N35G : 0.00468 µM

Sample chain 1 F29Y Y32S ; Kd observed: ≥ 10 µM

Recorded Kd (variant chain 1 M34T N35D ): ≥ 10 µM
